Answer each item with its documented Activity.
Test: Antiangiogenic effect in […] mouse microvascular choroid explants assessed as choroid sprouting at 10^-7 M after 4 days (reference value: 53%)
Format: functional
Starred links: 1 amine or outer side, 2 acyl side, 3 side chain; linkers in the order of their positions; H or OH if unused. Non-standard residues stand in square brackets, D forms with d. Residues, ends and D or L forms follow the SMILES beside them. Haic = O=C1[C@@H](N[*:1])CCc2cccc3c2N1[C@H](C(=O)[*:2])C3; dTrp(2-Me) = Cc1[nH]c2ccccc2c1C[C@@H](N)C(=O)O; azaTyr = O=C(N(Cc1ccc(O)cc1)N[*:1])[*:2]; azaPhe = O=C(N(Cc1ccccc1)N[*:1])[*:2]; azaLeu = CC(C)CN(N[*:1])C(=O)[*:2]; azaGly = NNC(=O)O
The figure you give is taken to be in %; do not add the unit.

**Query** Activity lookup needed for Cc1[nH]c2ccccc2c1C[C@@H](NC(=O)[C@@H]1Cc2cccc3c2N1C(=O)[C@@H](N)CC3)C(=O)N[C@H](CCCCN)C(=O)N[C@@H](Cc1c[nH]c2ccccc12)C(=O)N[C@H](Cc1ccccc1)C(=O)N[C@@H](CCCCN)C(N)=O (Haic-[dTrp(2-Me)][dK]W[dF]K-NH2) , thanks.
**Result** 3

**Query** Returns the measured Activity for the input compound. Input: C[C@H](N)C(=O)NN(Cc1ccccc1)C(=O)N[C@@H](C)C(=O)N[C@@H](Cc1c[nH]c2ccccc12)C(=O)N[C@H](Cc1ccccc1)C(=O)N[C@@H](CCCCN)C(N)=O (H-A[azaPhe]AW[dF]K-NH2)
**Result** 28

**Query** Which Activity is reported for this compound? C[C@H](NC(=O)[C@@H](Cc1c[nH]c2ccccc12)NC(=O)[C@@H](N)Cc1cnc[nH]1)C(=O)NN(Cc1ccc(O)cc1)C(=O)N[C@H](Cc1ccccc1)C(=O)N[C@@H](CCCCN)C(N)=O (H-H[dW]A[azaTyr][dF]K-NH2)
**Result** 17

**Query** Returns the measured Activity for the input compound. Input: `CC(C)CN(NC(=O)[C@H](N)Cc1c[nH]c2ccccc12)C(=O)N[C@@H](Cc1c[nH]c2ccccc12)C(N)=O`
**Result** 47

**Query** Consider the compound shown here: C[C@H](N)C(=O)N[C@H](Cc1c[nH]c2ccccc12)C(=O)NNC(=O)N[C@@H](Cc1c[nH]c2ccccc12)C(=O)N[C@H](Cc1ccccc1)C(=O)N[C@@H](CCCCN)C(N)=O (H-A[dW][azaGly]W[dF]K-NH2) What is its recorded Activity?
**Result** 72

**Query** Item under review: C[C@H](N)C(=O)N[C@H](Cc1c[nH]c2ccccc12)C(=O)N[C@@H](C)C(=O)NN(Cc1ccccc1)C(=O)N[C@H](Cc1ccccc1)C(=O)N[C@@H](CCCCN)C(N)=O (H-A[dW]A[azaPhe][dF]K-NH2) . Reported Activity?
**Result** 105

**Query** Requested field: Activity. Item: CC(C)CN(NC(=O)[C@@H](Cc1c[nH]c2ccccc12)NC(=O)[C@@H](N)Cc1cnc[nH]1)C(=O)N[C@@H](Cc1c[nH]c2ccccc12)C(=O)N[C@H](Cc1ccccc1)C(=O)N[C@@H](C)C(N)=O (H-H[dW][azaLeu]W[dF]A-NH2)
**Result** 25
